Source listed as paper PMC11339278.

- Study target: T1, SNX17ΔC (residue 1-390) with an intramolecular decaHis tag (human, UniProt Q15036 1-390)
- T1 chain: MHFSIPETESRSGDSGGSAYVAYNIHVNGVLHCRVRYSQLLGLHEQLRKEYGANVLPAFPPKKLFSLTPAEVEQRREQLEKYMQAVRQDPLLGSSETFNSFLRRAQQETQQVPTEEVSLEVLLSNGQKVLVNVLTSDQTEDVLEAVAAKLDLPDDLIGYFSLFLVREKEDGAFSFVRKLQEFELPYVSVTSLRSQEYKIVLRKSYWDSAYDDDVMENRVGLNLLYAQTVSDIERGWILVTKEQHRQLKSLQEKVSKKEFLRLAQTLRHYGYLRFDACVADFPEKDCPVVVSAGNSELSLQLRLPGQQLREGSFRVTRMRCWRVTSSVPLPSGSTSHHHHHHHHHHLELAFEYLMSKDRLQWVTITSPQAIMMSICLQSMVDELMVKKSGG
- Measurement description: ITC
Parameter Kd: see the listing below.
Observed property: Kd (µM)

- NGYENPTYKFFEQM [APP cargo recognition peptide (755-768)]: 4.74
- SASDVHGNFAFEGIGDEDL [synthetic peptide of the SNX17 tail (452-470)]: 116
- VEIGNPTYKMYEGG [LRP1 cargo recognition peptide (4466-4479)]: 3.64
